Target: T1, EsCas13d, nuclease-dead (Eubacterium siraeum, UniProt B0MS50, R295A;H300A;R849A;H854A)
T1 sequence: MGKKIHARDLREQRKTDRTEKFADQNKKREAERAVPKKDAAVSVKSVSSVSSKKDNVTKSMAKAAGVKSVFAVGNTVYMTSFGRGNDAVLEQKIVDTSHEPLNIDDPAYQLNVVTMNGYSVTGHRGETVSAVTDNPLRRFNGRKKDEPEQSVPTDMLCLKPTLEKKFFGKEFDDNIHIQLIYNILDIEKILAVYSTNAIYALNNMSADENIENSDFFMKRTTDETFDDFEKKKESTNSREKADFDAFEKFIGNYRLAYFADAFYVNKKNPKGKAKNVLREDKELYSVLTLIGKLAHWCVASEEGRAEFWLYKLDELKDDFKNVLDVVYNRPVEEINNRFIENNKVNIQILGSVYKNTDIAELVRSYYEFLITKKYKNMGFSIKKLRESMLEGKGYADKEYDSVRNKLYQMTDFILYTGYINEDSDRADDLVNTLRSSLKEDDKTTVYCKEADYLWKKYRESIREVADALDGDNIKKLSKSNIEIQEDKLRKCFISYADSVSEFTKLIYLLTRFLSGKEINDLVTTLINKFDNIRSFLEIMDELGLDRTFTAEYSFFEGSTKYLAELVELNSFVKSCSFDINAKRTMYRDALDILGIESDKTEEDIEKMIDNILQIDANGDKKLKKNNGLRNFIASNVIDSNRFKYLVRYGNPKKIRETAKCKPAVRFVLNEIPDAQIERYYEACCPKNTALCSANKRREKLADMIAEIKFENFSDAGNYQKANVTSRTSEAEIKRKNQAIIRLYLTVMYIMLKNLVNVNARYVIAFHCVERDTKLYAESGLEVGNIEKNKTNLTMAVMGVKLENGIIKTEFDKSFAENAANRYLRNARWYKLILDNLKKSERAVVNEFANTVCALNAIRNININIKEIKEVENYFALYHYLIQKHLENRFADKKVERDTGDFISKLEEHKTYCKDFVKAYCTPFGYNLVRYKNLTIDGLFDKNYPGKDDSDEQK
Test: crRNA (strand 1, pre-loaded); Mg2+; 40 mM Tris-HCl pH 7.5, 150 mM NaCl, 6 mM MgCl2, 1 mM DTT, 0.1% Tween-20, 0.2 mg/ml BSA; 25 C; 10 min per concentration, then washed
Conditions: tags: His6-TwinStrep-SUMO cleaved; N-terminal SNAP kept (SNAP-Surface 488); label: 3' end held by stalled T7 RNA polymerase
Would you kindly list pKd for each of these binders?
Numbers only, as −log10 of the molar value.

target 2 MT 5'PFS UAA 3'PFS AAC (mixed) RNA 1: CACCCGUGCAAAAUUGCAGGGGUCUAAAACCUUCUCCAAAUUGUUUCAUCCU RNA 2: GGGAAUGGAUCCACAUCUACGAAUUCUAAAGGAUGAAACAAUUUGGAGAAGAACAGAUCGGAAGAGCACACGU = 8.18

Would you kindly look at the next entry?
Prompt line: pKd for target 1 insA 3' of 17,insG 3' of 4 (mixed) RNA 1: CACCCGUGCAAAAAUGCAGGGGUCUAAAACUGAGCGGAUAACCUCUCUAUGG RNA 2: GGGAAUGGAUCCACAUCUACGAAUUCGUACCAUAGAAGAGGUUAUCCGCGUCACCGAGAUCGGAAGAGCACACGU ?
Response line: 7.99
